Source: the supplement of paper PMC10567573

B1: OAS1 (parent)
chain: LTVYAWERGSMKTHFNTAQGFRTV

- Variants of: B1
- Protocol: protein stability index of a GFP-peptide fusion (GPS, HEK-293T) (PSI 1-6); higher = more stable;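 note: lentivirally expressed fusions sorted by FACS into six bins by GFP to DsRed ratio, PSI derived from sequencing read proportions per bin multiplied by bin number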
- Measurement conditions: c terminus: a fixed tail appended
Could you please report measured protein stability index for the items listed next?
One number for each entry.

Y4I | 3.51
K12A | 3.08

Please state, for each entry, its recorded protein stability index.
1. S10D
2. Y4A

Output:
[1.75, 2.01]

List protein stability index for every entry below, keeping the order given.
1. E7C
2. M11T
3. Y4W

Output:
1. 3.64
2. 2.09
3. 1.19

Hey, quick one: what's protein stability index for each of these?
1. L1M
2. W6C
3. R22W
4. Y4S
5. T17Q
6. Q19H
7. V3T
8. T23L

Output:
1: 2.57; 2: 1.61; 3: 1.93; 4: 1.83; 5: 4.87; 6: 2.65; 7: 1.96; 8: 2.25

Return reported protein stability index values for all items listed beneath this line.
1. T23I
2. V24K

Output:
[2.69, 1.71]
